- study-system: T1, hTNFRSF12 amino acids a28-80-L65Q-hIgG1-Fc (human)
- T1 construct: TWEAKR-Fc mutein, coated on the ELISA plate
- experiment-description: ELISA: TWEAKR-Fc construct coated at 62 ng/ml, biotinylated IgG titrated from 100 nM; token + marks IC50 of 1 to […] pM

binder | binding result
136.1(TPP-2194) (antibody, mouse IgG2a, kappa, V domains shown, murine IgG2a; variable domains from WO2009/020933 with a murine IgG2 constant region added; biotinylated IgG in the ELISA) VH: EVKLEESGGGLVQPGGSMKLSCVASGFTFNNYWMSWVRQSPEKGLEWLAEIRLKSDNYATHYAESVKGKFTISRDDSKSRLYLQMNNLRAENTGIYYCTGGFADYFDYWGQGTTLTVSS VL: DIVLTQSPASLTVSLGQRATISCRASQSVSTSSYSYMQWYQQRPGQPPKLLIKYATNLDSGVPARFSGSGSGTDFTLNIHPVEEEDAATYYCQHSWEIPYTFGGGTKLEIKR | binds
TPP-2090 (antibody, V domains shown, human IgG1; also called anti-TWEAKR AK-1) VH: EVQLLESGGGLVQPGGSLRLSCAASGFTFSPYPMIWVRQAPGKGLEWVSYISPSGGSTHYADSVKGRFTISRDNSKNTLYLQMNSLRAEDTAVYYCARGGDTYFDYFDYWGQGTLVTVSS VL: DIQMTQSPSSLSASVGDRVTITCRASQSISGYLNWYQQKPGKAPKLLIYQASSLQSGVPSRFSGSGSGTDFTLTISSLQPEDFATYYCQQSYTSPFITFGQGTKVEIKR | binds

Reference for the values: patent US20160346402A1
